Measured IC50 values are reported for all entries that follow.
# system: DGKζ (Homo sapiens (Human), UniProt Q13574)
# Sequence (Q13574 other isoform, or with tags, fused parts or gaps): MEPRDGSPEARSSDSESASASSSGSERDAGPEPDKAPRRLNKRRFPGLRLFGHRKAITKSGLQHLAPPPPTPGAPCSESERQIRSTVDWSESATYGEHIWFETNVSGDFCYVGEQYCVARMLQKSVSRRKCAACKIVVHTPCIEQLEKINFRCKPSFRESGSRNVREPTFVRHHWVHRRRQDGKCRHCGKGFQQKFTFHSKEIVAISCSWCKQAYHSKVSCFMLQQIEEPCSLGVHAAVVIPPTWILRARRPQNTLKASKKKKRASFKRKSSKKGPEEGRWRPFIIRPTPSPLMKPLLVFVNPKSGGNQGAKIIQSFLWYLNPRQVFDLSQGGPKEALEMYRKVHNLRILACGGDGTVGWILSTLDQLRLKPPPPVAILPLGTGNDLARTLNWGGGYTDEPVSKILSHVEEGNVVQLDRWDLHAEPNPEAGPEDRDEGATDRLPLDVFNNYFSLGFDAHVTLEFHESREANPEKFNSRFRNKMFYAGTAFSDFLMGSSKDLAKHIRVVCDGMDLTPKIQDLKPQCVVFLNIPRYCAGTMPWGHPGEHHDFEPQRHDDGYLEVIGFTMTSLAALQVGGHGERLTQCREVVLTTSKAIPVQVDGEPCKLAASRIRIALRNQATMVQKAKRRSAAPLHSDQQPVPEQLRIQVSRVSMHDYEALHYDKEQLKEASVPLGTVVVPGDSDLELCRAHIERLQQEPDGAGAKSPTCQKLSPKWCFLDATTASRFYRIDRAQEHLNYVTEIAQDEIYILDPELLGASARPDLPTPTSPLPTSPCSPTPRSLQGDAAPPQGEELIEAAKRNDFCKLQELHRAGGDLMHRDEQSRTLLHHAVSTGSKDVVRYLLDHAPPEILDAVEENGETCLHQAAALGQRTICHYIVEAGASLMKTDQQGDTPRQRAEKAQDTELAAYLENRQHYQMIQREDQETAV

molecule | IC50 / nM
[2H]C([2H])([2H])n1c(=O)cc(N2C[C@@H](CC)N(C(C)c3ccc4nc(C)sc4n3)C[C@@H]2CC)c2nn(CC#N)cc21 (single isomer, unassigned) [Compound A134a] | 3920
CC[C@H]1CN(C(C)c2ccc(C(=O)N3CC(OC)C3)cc2)[C@H](CC)CN1c1cc(=O)n(C)c2cn(CC#N)nc12 (single isomer, unassigned) | 1440
CC[C@H]1CN(C(C)c2ccc(C3CC3)nc2)[C@H](CC)CN1c1cc(=O)n(C)c2cn(CC#N)nc12 (single isomer, unassigned) [Compound A38b] | 1180
CC[C@H]1CN([C@H](C)c2ccc(OC(C)C)cc2)[C@H](CC)CN1c1cc(=O)n(C)c2cn(CC#N)nc12 [Compound A33a] | 45
CC[C@H]1CN(C(C)c2cnc3ncsc3c2)[C@H](CC)CN1c1cc(=O)n(C)c2cn(CC#N)nc12 (single isomer, unassigned) [Compound A98b] | 2870
CC#CCn1cc2c(n1)c(N1C[C@@H](CC)N(C(C)c3cnc4ccccc4n3)C[C@@H]1CC)cc(=O)n2C (single isomer, unassigned) [Compound A206b] | 103
